Numbers sourced from patent US20240199542A1.

Attribute: Pre-emergence activity against AVEFA
# Test system: Avena fatua (AVEFA)
# protocol: Herbicidal pre-emergence action
# Format: in vivo
# stated.conditions: 1280 g/ha, graded after ca. 3 weeks
Give your result in % as a bare value.

# count of solved cases: 5
Please report Pre-emergence activity against AVEFA for the following compound: O=C(CC1CCC(=O)N1Cc1cccc(F)c1F)OC1CCCC1 (racemic) 100

State, in one line, measured Pre-emergence activity against AVEFA of COC(=O)CC1CCC(=O)N1Cc1cccc(F)c1F (racemic) 100

Give the reported Pre-emergence activity against AVEFA for this compound. C=CCCOC(=O)CC1CCC(=O)N1Cc1cccc(F)c1F (racemic) 100

Please report the measured Pre-emergence activity against AVEFA for CC(C)OC(=O)CC1CCC(=O)N1Cc1cccc(F)c1F (racemic) 100

Answer with reported Pre-emergence activity against AVEFA of C#CCNC(=O)CC1CCC(=O)N1Cc1cccc(F)c1F (racemic) 80

---
Indicate the recorded Pre-emergence activity against AVEFA value for this compound: COCCOC(=O)CC1CCC(=O)N1Cc1cccc(F)c1F (racemic) 100
